assay: chemical genetic growth profiling, strain panel (AID 1159580);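 also: tested at 20 µM; growth read once vehicle control cultures reached saturation at 30 °C; 1 = growth at the plate median or of vehicle wells; lower values mean less growth of the strain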; settings: S. cerevisiae deletion strains, growth OD, locus YDR162C, strain NBP2, active compounds read low
In all, about 5,500 compounds went through this assay and about 2,000 (36%) were called active. About 18% were inconclusive and are not listed. The list shows a part of the results.
VALUE_TYPE: normalized growth
The reply should be a number, written without any unit.

query: Tell me the measured normalized growth of COc1ccc(OC)c(C(O)CNC(=O)CN)c1 (configuration not stated) , please.
result: 0.983

query: // normalized growth lookup, key: CN1C2C[C@H](OC(=O)[C@H](CO)c3ccccc3)C[C@H]1[C@@H](O)C2
result: 1.02

query: Returns the measured normalized growth for the input molecule. Input: COC(=O)/C=C/C(C)=C/C=C/C(C)=C/C=C/C=C(C)/C=C/C=C(C)/C=C/C(=O)O
result: 1.03

query: // query normalized growth value for entry NCCc1cnc[nH]1
result: 0.998

query: What normalized growth value was documented for this molecule, CC1(C)S[C@@H]2[C@H](NC(=O)[C@H](N)c3ccccc3)C(=O)N2[C@H]1C(=O)O ?
result: 1.03

query: Request the reported normalized growth associated with CCCCNC(=O)NS(=O)(=O)c1ccc(C)cc1
result: 0.974

query: What value of normalized growth has been reported for the following molecule? COc1ccc(CN(CCN(C)C)c2ccccn2)cc1
result: 0.992

query: Give the measured normalized growth of CC(C)NCC(O)COc1cccc2[nH]ccc12 (configuration not stated) .
result: 0.995

query: Look up normalized growth: O=C(OCC(O)CO)c1ccccc1Nc1ccnc2cc(Cl)ccc12 (configuration not stated)
result: 0.992

query: What value of normalized growth has been recorded for this entry: CN(C)CCN(Cc1cccs1)c1ccccn1
result: 1.01

query: Consider the molecule CN(C)CCN(Cc1ccccc1)c1ccccn1 and give its measured normalized growth.
result: 0.989

query: What does the record list as normalized growth for O=c1cccc2ccc(O)c(O)c2c1O ?
result: 0.0859
